Source of measurements: patent US5807824A

Biological target: T1, C5a receptor (Homo sapiens, UniProt P21730)
T1 construct: Neutrophils were purified from human peripheral blood; endogenous in cells; host or cells: neutrophils from human peripheral blood
T1 sequence (P21730 1-350): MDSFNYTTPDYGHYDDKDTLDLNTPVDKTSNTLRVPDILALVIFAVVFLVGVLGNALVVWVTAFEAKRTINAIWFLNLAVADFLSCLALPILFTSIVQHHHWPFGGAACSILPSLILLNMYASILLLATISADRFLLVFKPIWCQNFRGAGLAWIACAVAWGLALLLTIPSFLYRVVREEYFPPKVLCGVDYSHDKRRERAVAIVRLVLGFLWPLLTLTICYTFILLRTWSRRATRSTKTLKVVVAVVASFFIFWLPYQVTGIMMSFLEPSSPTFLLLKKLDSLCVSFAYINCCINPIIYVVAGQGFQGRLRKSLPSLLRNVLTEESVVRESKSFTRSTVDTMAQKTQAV
Experiment: Receptor binding assay: displacement of [125I]Bolton-Hunter labelled C5a from PMNL membranes
Settings: Table 6, Example 10 comparison with decapeptide
pKi: −log10 of the molar value.
Observed Property: pKi

Molecule | pKi
C5a (1-72, T1M, C27S, L72C) (protein, UniProt P01031 678-751, looked up, variant T1M C27S L72C, C5a anaphylatoxin truncated to residues 1-72) C5a anaphylatoxin: MLQKKIEEIAAKYKHSVVKKCCYDGASVNNDETCEQRAARISLGPRCIKAFTECCVVASQLRANISHKDMQCGR | 9.82

(P) C5a (1-68, T1M, C27S, K68C) (protein, UniProt P01031 678-745, looked up, variant T1M C27S K68C, C5a anaphylatoxin) MLQKKIEEIAAKYKHSVVKKCCYDGASVNNDETCEQRAARISLGPRCIKAFTECCVVASQLRANISHC
(Q) C5a (1-70, T1M, C275, M7OC) (protein, UniProt P01031 678-747, looked up, variant T1M C27S M70C, C5a anaphylatoxin) MLQKKIEEIAAKYKHSVVKKCCYDGASVNNDETCEQRAARISLGPRCIKAFTECCVVASQLRANISHKDC
stdin: Form: Entry with minimum pKi (choose one): P / Q Selection: enter the item's label.
stdout: Q
